Reference for the values: paper PMC12892976

Test system: Candida albicans
ASSAY COMMENT: checkerboard drug interaction (FICI, MICc);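 note: antifungal plus FPPS inhibitor combinations on Candida albicans tested by a simplified diagonal checkerboard screen, with FICI calculated under the Loewe additivity model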
Type: cell-based
DETAILS: C. albicans; KET:INH combination; MIC of the inhibitor in combination with KET
Quick reference for INH MICc among some molecules
I only need the number, thanks.

A selection of reference data follows.
MOLECULE	TGT	METRIC NAME	OBSERVED VALUE
CCCCCCCCCCN1CCC[C@H]1C(=O)N[C@H](CC(=O)OC)C(=O)OC	Candida albicans	INH MICc	4
CCCCCCCCCCCN1CCC[C@H]1C(=O)N[C@H](CC(=O)O)C(=O)O	Candida albicans	INH MICc	64
O=P(O)(O)C(O)(Cn1ccnc1)P(=O)(O)O [ZOL, zoledronate]	Candida albicans	INH MICc	32
CCCCCCCCCCCCN1CCC[C@H]1C(=O)N[C@@H](CC(=O)OC)C(=O)OC	Candida albicans	INH MICc	16
CCCCCCCCCCCN1CCC[C@H]1C(=O)N[C@@H](CC(=O)O)C(=O)O	Candida albicans	INH MICc	128
CCCCCCCCCCN1CCC[C@H]1C(=O)N[C@@H](CC(=O)OC)C(=O)OC	Candida albicans	INH MICc	4
CCCCCCCCCCCCN1CCC[C@H]1C(=O)N[C@H](CC(=O)OC)C(=O)OC	Candida albicans	INH MICc	4
CCCCCCCCCCCCN1CCC[C@H]1C(=O)N[C@H](CC(=O)O)C(=O)O	Candida albicans	INH MICc	32
CCCCCCCCCCCN1CCC[C@H]1C(=O)N[C@@H](CC(=O)OC)C(=O)OC	Candida albicans	INH MICc	8
CCCCCCCCCN1CCC[C@H]1C(=O)N[C@H](CC(=O)OC)C(=O)OC	Candida albicans	INH MICc	64

Note: attention shifts to another entry.
Challenge: State its INH MICc: CCCCCCCCCN1CCC[C@H]1C(=O)N[C@@H](CC(=O)OC)C(=O)OC
Response given: 16

---

Tested on: Saccharomyces cerevisiae
ASSAY COMMENT: checkerboard drug interaction (FICI, MICc)
Assay type: cell-based
DETAILS: S. cerevisiae; KET:INH combination; MIC of KET in combination with the inhibitor
METRIC NAME: KET MICc
I only need the number, thanks.

A selection of reference data follows.
COMPOUND	OBSERVED VALUE
O=P(O)(O)C(O)(Cn1ccnc1)P(=O)(O)O [ZOL, zoledronate]	0.25
CCCCCCCCCCCN1CCC[C@H]1C(=O)N[C@@H](CC(=O)O)C(=O)O [PLA11]	0.5
CCCCCCCCCN1CCC[C@H]1C(=O)N[C@@H](CC(=O)O)C(=O)O [PLA9]	0.25
CCCCCCCCCN1CCC[C@H]1C(=O)N[C@@H](CC(=O)OC)C(=O)OC [dmPLA9]	2
CCCCCCCCCCN1CCC[C@H]1C(=O)N[C@@H](CC(=O)OC)C(=O)OC [dmPLA10]	2

Challenge: State its KET MICc: CCCCCCCCCCn1cc[n+](CC(O)(P(=O)(O)O)P(=O)(O)O)c1 [10-ZOL, Decyl-zoledronate]
Response given: 0.25

---

System: Cryptococcus neoformans
ASSAY COMMENT: checkerboard drug interaction (FICI, MICc)
Assay type: cell-based
DETAILS: C. neoformans; KET:INH combination
METRIC NAME: FICI
I only need the number, thanks.

A selection of reference data follows.
COMPOUND	FICI
CCCCCCCCCCCCN1CCC[C@H]1C(=O)N[C@H](CC(=O)OC)C(=O)OC	1.25
CCCCCCCCCCN1CCC[C@H]1C(=O)N[C@H](CC(=O)OC)C(=O)OC	0.75
CCCCCCCCCCCN1CCC[C@H]1C(=O)N[C@H](CC(=O)OC)C(=O)OC	3

Challenge: State its FICI: O=P(O)(O)C(O)(Cn1ccnc1)P(=O)(O)O [ZOL, zoledronate]
Response given: 0.19

Challenge: State its FICI: CCCCCCCCCCCN1CCC[C@H]1C(=O)N[C@@H](CC(=O)OC)C(=O)OC
Response given: 1.5

Challenge: State its FICI: CCCCCCCCCCCCN1CCC[C@H]1C(=O)N[C@@H](CC(=O)OC)C(=O)OC
Response given: 0.75
